Reference source for all entries: PubChem BioAssay

assay_summary: binders of probe aHhip on microarray, primary screen, stem cell growth factor project, biochemical, small-molecule microarray, fluorescence 635/667 (AID 1087);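 further: score merges spot fluorescence at 667nm with spot signal to noise ratio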
condition_parameters: higher = more signal
Provide the recorded composite z-score for the entries that follow.
Answers are plain numbers.

O=C1C2C=CC(C(O)c3cccs3)N(Nc3ccc([N+](=O)[O-])cc3)C2C(=O)N1c1ccccc1 (configuration not stated) = 0.154
O=C1O[C@@H](c2ccccc2)[C@@H](c2ccccc2)N2[C@@H](c3ccc(OCCO)cc3)[C@]3(C(=O)Nc4ccc(C#CC5(O)CCCCCC5)cc43)[C@@H](C(=O)O)[C@H]12 = 0.0176
COCCCNC(=O)[C@@]1(CCS(=O)(=O)c2ccccc2)COC(c2ccc(OCCCO)cc2)=N1 = -0.0296
C=C(COC)C(=O)CC[C@@H](OC(C)=O)c1ccccc1OCCO = -0.0994
C=C(COC)C(=O)CC[C@H](OC(=O)c1cccnc1)c1ccc(OCCO)cc1 = -0.0618
CN1C(=O)C2C(C1=O)C1C=C(CCCO)C2C(C2CC2)N1Cc1cccc(OC(F)(F)F)c1 (configuration not stated) = -0.242

Hi, could you look up composite z-score for each item in my list?
1. CC(C)C(CO)N1C(=O)[C@@H]2C3C(=O)OCCC/C=C\[C@H]3OC23C=CCN(Cc2ccccc2)C(=O)[C@@H]13 (some centres not stated)
2. O=C(O)[C@H](Cc1ccccc1)n1cc(C2(O)CCCCC2)nn1
3. NC(=O)N1C(=O)C2C(C1=O)C1C=C(CCCO)C2C(c2ccc(CN3CCCC3)cc2)N1Cc1sc2ccccc2c1Cl (configuration not stated)
4. CC(C)c1nc2cc(Br)ccc2c(=O)o1
5. NC(=O)N1C(=O)C2C(C1=O)C1C=C(CCCO)C2C(c2ccc(CN3CCCC3)cc2)N1Cc1cc2c(cc1Br)OCO2 (configuration not stated)
6. COC(=O)[C@H](Cc1ccc(O)cc1)N[C@@H](/C=C/C1CC1)[C@H](O)Cc1ccccc1
7. COC(=O)[C@@]1(Cc2ccccc2)N=C(c2ccc(OCCCO)cc2)O[C@H]1c1ccccc1CN=[N+]=[N-]

Result:
-0.134
-0.0645
-0.323
-0.146
-0.476
-0.0994
-0.41

###

System: XIP peptide (Xip251-270)
assay_summary: compounds binding XIP fragment 251-270 – biochemical, small-molecule microarray, fluorescence 635/667 nm, 0.5 µg/mL protein, primary screen (AID 1183)
condition_parameters: fluorescence 635 nm, higher = more signal
Provide the recorded composite z-score for the entries that follow.
Answers are plain numbers.

Hi, could you look up composite z-score for each item in my list?
1. NC(=O)NCC#Cc1ccc2c(c1)[C@]1(C(=O)N2)[C@H](c2ccc(OCCO)cc2)N2[C@H](c3ccccc3)[C@H](c3ccccc3)OC(=O)[C@H]2[C@@H]1C(=O)O
2. CN1C(=O)C2C=CC(C(O)c3ccc(-c4ccccc4)s3)N(NC(=O)OC(C)(C)C)C2C1=O (centres undefined)
3. C=C(C)[C@@H]1CC=C(C(O)C2C=CC3C(=O)N(c4ccccc4)C(=O)C3N2Nc2ccc([N+](=O)[O-])cc2)CC1 (some centres undefined)
4. CCOC(=O)C1=CCC(c2cc3ccccc3[nH]2)N(CCN2CC(C(=O)OCC)=CCC2c2cc3ccccc3[nH]2)C1 (centres undefined)
5. CO[C@H]1O[C@H](CO)[C@@H](OC(=O)Nc2ccc3c(c2)OCO3)[C@H](OC(=O)Nc2ccccc2-c2ccccc2)[C@H]1OC(=O)Nc1ccccc1-c1ccccc1
6. CC(C)[Si](C#CCCc1ccccc1)(O[C@H](c1ccccc1)c1cn(Cc2ccccc2)nn1)C(C)C

Result:
1: -0.0846; 2: 0.912; 3: -0.0122; 4: 0.737; 5: 0.873; 6: 0.574

###

Tested on: Plasmodium falciparum Sir2 (PF13_0152, Sir2A)
assay_summary: Plasmodium falciparum Sir2A binding compounds – biochemical, small-molecule microarray, 635 nm fluorescence, primary screen (AID 1098);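 further: score merges spot fluorescence intensity with its signal-to-noise ratio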
condition_parameters: fluorescence 635 nm, higher = more signal
reported_endpoint: composite z-score
Numbers only.

COC(=O)[C@@]1(Cc2ccc(OC)cc2)[C@H]2c3cc(C(=O)N4CCCC4)n(Cc4ccc(C(F)(F)F)nc4)c3C[C@H]2CN1C(=O)c1ccccc1 = 1.27

Hi, could you look up composite z-score for each item in my list?
1. CC(C)C(O)C1C=CC2C(=O)NC(=O)C2N1Nc1ccccn1 (stereo not drawn)
2. COCCCNC(=O)[C@@H]1c2ccccc2C(=O)N(Cc2ccc(OC(F)(F)F)cc2)[C@H]1c1ccc(CO)cc1

Result:
1. 1.09
2. 0.499

Hi, could you look up composite z-score for each item in my list?
1. COC(=O)[C@@]1(Cc2ccc(OC)cc2)[C@H]2c3cc(C(=O)N4CCCC4)n(CCn4cc([N+](=O)[O-])nc4C)c3C[C@H]2CN1C(=O)c1ccccc1
2. CC(C)NC(=O)[C@@]1(C)c2ccccc2C(=O)N(Cc2ccccc2)[C@H]1c1ccc(CO)cc1
3. C[C@@H]1ON(c2ccccc2)[C@H](c2ccccc2)[C@H]1C(=O)O
4. CC(C)(C)OC(=O)CC[C@]1(C(=O)NCC(O)CO)N=C(c2ccc(OCCCO)cc2)O[C@H]1c1ccccc1N=[N+]=[N-] (stereo partly drawn)

Result:
1.2
1.7
-0.344
1.18

Problem: Give the measured composite z-score for COCCCNC(=O)[C@@]1(Sc2ccc(C)cc2)CC(=O)N(Cc2ccccc2C(F)(F)F)[C@@H]1c1ccc(CO)cc1I
Result: 0.284

###

assay_summary: hepatitis C replication reporter changes, two-sided – Huh7 cells, luciferase reporter, HCV replication inhibitor project, primary screen (AID 1109);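 further: huh7 hepatoma cells harbouring a luciferase neomycin HCV replicon reporter; luciferase luminescence as measure of HCV replicon replication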
condition_parameters: Huh7 HCV replicon luciferase reporter, 48 h; higher = more signal
Provide the recorded z-score for the entries that follow.
Give bare numbers.

CN1C(=O)[C@@H]2[C@@H](CC(COc3ccccc3)=C3[C@@H](CCc4ccccc4)OB(O)C[C@@H]32)C1=O = -0.595
CCOC(=O)c1cn(C[C@H](Cc2ccccc2)NC(=O)N[C@H](CO)CCc2oc(C(C)=O)c(C(=O)OC)c2C(=O)OC)nn1 = 0.404
O=C(NCC(O)CO)[C@@]1(CCS(=O)(=O)c2ccccc2)N=C(c2ccc(OCCCO)cc2)O[C@H]1c1ccccc1 (stereo partly specified) = 0.0294
COC(=O)[C@@]1(Cc2ccc(F)cc2)[C@H]2c3cc(C(=O)N(C)C)n(C)c3C[C@H]2CN1C(=O)c1ccccc1 = -0.275
NC(=O)NCC#Cc1ccc2c(c1)[C@]1(C(=O)N2)[C@H](c2ccc(OCCO)cc2)N2[C@H](c3ccccc3)[C@H](c3ccccc3)OC(=O)[C@H]2[C@@H]1C(=O)O = -0.591
C=CCN1Cc2ccccc2[C@H]2OC(c3ccc(OCCCO)cc3)=N[C@@]2(CCS(=O)(=O)c2ccccc2)C1=O = -1.56
COc1ccc([Si](C)(C)[C@@H]2[C@@H](CC(=O)N(CCO)Cc3ccccc3)O[C@]3(C(=O)N(Cc4ccc(N5C(=O)c6cccc7cccc5c67)cc4)c4ccccc43)[C@H]2C)cc1 = -4.47
COCCCNC(=O)[C@@]1(CCS(=O)(=O)c2ccccc2)COC(c2ccc(OCCCO)cc2)=N1 = -0.46
COc1ccc(C(=O)Nc2cccc(CN3C(=O)[C@@]4(O[C@@H](CC(=O)N5CCC[C@H]5CO)[C@H]([Si](C)(C)c5ccc(OC)cc5)[C@H]4C)c4ccccc43)c2)cc1 = -3.13
CCCC[C@H]1C[C@@H]1[C@@H]1N(C(C)=O)[C@H](c2cccc(OC)c2)CC12CC2 = -0.103

Hi, could you look up z-score for each item in my list?
1. COC(=O)[C@@]1(Cc2ccccc2)[C@H]2c3cc(C(=O)N(C)C)n(CCO)c3C[C@H]2CN1C(=O)c1ccccc1
2. CCOC(=O)C[C@H]1[C@H](OC(=O)Cc2ccc3c(c2)OCO3)[C@@H](NC(=O)Cc2ccc(OC)cc2)c2cc(OCCCO)ccc2N1C(=O)Cc1ccc(OC)cc1
3. N#Cc1ccc(-c2cccc(=O)o2)cc1

Result:
-0.766
-1.05
-0.0585

Hi, could you look up z-score for each item in my list?
1. CCCCC(O)C1C=CC2C(=O)N(c3ccccc3)C(=O)C2N1Nc1ccccc1 (stereo unspecified)
2. CCC(CC)C(O)C1C=CC2C(=O)N(c3ccccc3)C(=O)C2N1Nc1ccccc1F (stereo unspecified)
3. CN(C)CCCCNC(=O)[C@H]1C[C@H]2C(=O)NCC(=O)N2[C@H]1c1ccc(O)cc1

Result:
1. -0.375
2. -0.171
3. 0.143

###

tested_target: Calmodulin-1 (Homo sapiens)
assay_summary: small molecules binding Ca-loaded calmodulin-1 – biochemical, small-molecule microarray, Cy5-labelled CALM1, plus calcium, artefact control for SMM control-protein annotation, profiling panel (AID 1112);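 further: score merges spot fluorescence with signal to noise from triplicate slides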
condition_parameters: Cy5-CALM1 binding fluorescence, higher = more signal
reported_endpoint: composite z-score
Answers are plain numbers.

Hi, could you look up composite z-score for each item in my list?
1. C=C(CCCC)/C(=C/C[C@H](OC(=O)c1ccncc1)c1ccccc1OCCO)c1cc(C(=O)OC)ccc1OC
2. CC(C)C(CO)N1C(=O)[C@@H]2C3C(=O)OCCC/C=C\[C@H]3OC23C=CCN(Cc2ccccc2)C(=O)[C@@H]13 (some centres not stated)
3. CO[C@H]1O[C@H](CO)[C@@H](OC(=O)Nc2ccc3c(c2)OCO3)[C@H](OC(=O)Nc2ccccc2-c2ccccc2)[C@H]1OC(=O)Nc1ccccc1-c1ccccc1
4. [N-]=[N+]=Nc1ccccc1C[C@@]1(C(=O)NCc2ccccc2)N=C(c2ccc(OCCCO)cc2)O[C@@H]1c1ccccc1N=[N+]=[N-]
5. C=CCN1Cc2ccccc2[C@H]2OC(c3ccc(OCCCO)cc3)=N[C@@]2(CCS(=O)(=O)c2ccccc2)C1=O
6. Cc1ccc(S[C@]2(C(=O)NC(C)C)CC(=O)N(C3CCCCC3)[C@@H]2c2ccc(CO)cc2I)cc1

Result:
1: -0.636; 2: 0.574; 3: -0.243; 4: 0.683; 5: 0.472; 6: -0.558

Problem: Report composite z-score under test system Calmodulin-1 (Homo sapiens) for C[C@@H]1ON(c2ccccc2)[C@H](c2ccccc2)[C@H]1C(=O)O .
Result: -0.124
